# experimental details: small-molecule microarray binders of probe aEGFR, primary screen, biochemical, biotinylated probe, 635/667 nm fluorescence (AID 1097);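 further: probe is a biotinylated anti-EGFR antibody binding compounds printed on slides; score combines fluorescence near 667 nm and signal to noise of each spot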
# run parameters: higher = more signal
metric: composite z-score

Some compounds with known composite z-score results, for comparison:
# compound, composite z-score
data = [
    ("COc1cc2c(cc1OC)CN(C(=O)[C@@H]1[C@H]3C(=O)O[C@H](c4ccccc4)[C@H](c4ccccc4)N3[C@H](c3ccc(OCCO)cc3)[C@@]13C(=O)Nc1ccccc13)CC2", 0.134),
    ("[N-]=[N+]=NCc1ccccc1[C@@H]1OC(c2ccc(OCCCO)cc2)=N[C@]1(CCS(=O)(=O)c1ccccc1)C(=O)NCC(O)CO (some centres not stated)", -0.0435),
    ("COc1cc(CO)cc(I)c1O[C@H]1C=C(C(=O)NCCO)C[C@@H](NCc2ccc(F)cc2)[C@@H]1O", -0.128),
    ("C=C[C@@H](OC)[C@H](OC(=O)Nc1ccc(SC)cc1)c1ccc(O)c(F)c1", -0.126),
    ("COc1ccc([Si](C)(C)[C@@H]2[C@@H](CCO)O[C@]3(C(=O)N(Cc4ccc(N5CCCCC5=O)cc4)c4ccccc43)[C@H]2C)cc1", -0.0828),
]

composite z-score for COc1ccc([Si](C)(C)[C@@H]2[C@@H](CC(=O)N(CCO)Cc3ccccc3)O[C@]3(C(=O)N(c4ccccc4)c4ccccc43)[C@H]2C)cc1 ?
-0.0512

Next compound: O=C1C2C=CC(C(O)c3ccc(Br)cc3)N(Nc3ccccc3F)C2C(=O)N1c1ccccc1 (configuration not stated)
-0.112
